# key: entry, value: IC50
Biological target: Casein kinase I isoform epsilon (Homo sapiens, UniProt P49674)
Sequence (P49674 whole entry, canonical isoform): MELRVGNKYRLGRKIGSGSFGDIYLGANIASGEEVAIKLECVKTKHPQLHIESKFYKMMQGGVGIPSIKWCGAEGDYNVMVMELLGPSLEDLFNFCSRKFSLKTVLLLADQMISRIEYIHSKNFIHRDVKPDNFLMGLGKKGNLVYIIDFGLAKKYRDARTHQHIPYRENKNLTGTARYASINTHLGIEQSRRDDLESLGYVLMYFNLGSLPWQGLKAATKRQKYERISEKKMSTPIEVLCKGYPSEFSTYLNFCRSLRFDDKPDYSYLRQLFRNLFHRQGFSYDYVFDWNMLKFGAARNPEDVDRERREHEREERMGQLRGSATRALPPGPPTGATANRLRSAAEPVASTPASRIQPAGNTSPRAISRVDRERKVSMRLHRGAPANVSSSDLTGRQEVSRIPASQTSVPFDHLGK
Experiment: CK1epsilon(CS1ELGI5) Takeda global kinase panel
PROPERTY NAME: IC50 (µM)

COMPOUND: CN1C(=O)[C@@H](N2CCc3cn(CC4CCS(=O)(=O)CC4)nc3C2=O)COc2ccccc21 [TP-030n]
UNIT SYMBOL: µM
READOUT NUMBER: 1

COMPOUND: CN1C(=O)[C@@H](N2CCc3cn(Cc4ccccc4)nc3C2=O)COc2ccccc21
UNIT SYMBOL: µM
READOUT NUMBER: 1

====

Target: Mitogen-activated protein kinase 4 (Homo sapiens, UniProt P31152)
Assay: ERK4(MAP4LGY1) Takeda global kinase panel
PROPERTY NAME: IC50 (µM)

SMILES REPRESENTATION: CN1C(=O)[C@@H](N2CCc3cn(Cc4ccccc4)nc3C2=O)COc2ccccc21
PROPERTY NAME: IC50
READOUT NUMBER: 1

====

Target: MAP/microtubule affinity-regulating kinase 3 (Homo sapiens)
Sequence (P27448 whole entry): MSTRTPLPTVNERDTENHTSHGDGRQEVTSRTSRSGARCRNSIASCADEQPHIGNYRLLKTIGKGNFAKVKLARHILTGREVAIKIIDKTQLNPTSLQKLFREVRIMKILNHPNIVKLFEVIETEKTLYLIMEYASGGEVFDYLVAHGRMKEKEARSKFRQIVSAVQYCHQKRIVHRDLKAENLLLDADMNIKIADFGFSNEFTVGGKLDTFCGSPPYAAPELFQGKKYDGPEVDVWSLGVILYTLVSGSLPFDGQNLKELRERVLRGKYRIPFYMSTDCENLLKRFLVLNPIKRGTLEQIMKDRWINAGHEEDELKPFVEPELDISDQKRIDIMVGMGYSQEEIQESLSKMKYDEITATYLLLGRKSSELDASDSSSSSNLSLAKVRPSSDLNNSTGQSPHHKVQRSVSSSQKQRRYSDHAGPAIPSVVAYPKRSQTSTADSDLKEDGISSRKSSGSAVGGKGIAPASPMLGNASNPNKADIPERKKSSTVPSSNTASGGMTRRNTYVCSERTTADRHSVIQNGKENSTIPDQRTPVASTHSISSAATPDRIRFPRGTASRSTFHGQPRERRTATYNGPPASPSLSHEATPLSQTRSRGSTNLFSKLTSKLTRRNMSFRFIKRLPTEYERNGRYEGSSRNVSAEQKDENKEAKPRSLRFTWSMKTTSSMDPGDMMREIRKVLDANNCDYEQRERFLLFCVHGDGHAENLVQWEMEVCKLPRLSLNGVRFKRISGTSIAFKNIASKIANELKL
pIC50: −log10 of the molar value.
Catalogue of pIC50 readings, one per entry.
PROPERTY NAME: pIC50

COMPOUND: CN1C(=O)[C@@H](N2CCc3cn(CC4CCS(=O)(=O)CC4)nc3C2=O)COc2ccccc21 [TP-030n]
TARGET DESC: MAP/microtubule affinity-regulating kinase 3 (Homo sapiens)
PROPERTY NAME: pIC50
READOUT NUMBER: 6.00
//
COMPOUND: CN1C(=O)[C@@H](N2CCc3cn(Cc4ccccc4)nc3C2=O)COc2ccccc21
TARGET DESC: MAP/microtubule affinity-regulating kinase 3 (Homo sapiens)
PROPERTY NAME: pIC50
READOUT NUMBER: 6.00

====

These records show IC50 for Wee1-like protein kinase (Homo sapiens, UniProt P30291).

COMPOUND: CN1C(=O)[C@@H](N2CCc3cn(CC4CCS(=O)(=O)CC4)nc3C2=O)COc2ccccc21 [TP-030n]
IC50 [µM]: 1

COMPOUND: CN1C(=O)[C@@H](N2CCc3cn(Cc4ccccc4)nc3C2=O)COc2ccccc21
IC50 [µM]: 1

====

Biological target: Calcium/calmodulin-dependent protein kinase kinase 1 (Homo sapiens, UniProt Q8N5S9)
Sequence (Q8N5S9 whole entry): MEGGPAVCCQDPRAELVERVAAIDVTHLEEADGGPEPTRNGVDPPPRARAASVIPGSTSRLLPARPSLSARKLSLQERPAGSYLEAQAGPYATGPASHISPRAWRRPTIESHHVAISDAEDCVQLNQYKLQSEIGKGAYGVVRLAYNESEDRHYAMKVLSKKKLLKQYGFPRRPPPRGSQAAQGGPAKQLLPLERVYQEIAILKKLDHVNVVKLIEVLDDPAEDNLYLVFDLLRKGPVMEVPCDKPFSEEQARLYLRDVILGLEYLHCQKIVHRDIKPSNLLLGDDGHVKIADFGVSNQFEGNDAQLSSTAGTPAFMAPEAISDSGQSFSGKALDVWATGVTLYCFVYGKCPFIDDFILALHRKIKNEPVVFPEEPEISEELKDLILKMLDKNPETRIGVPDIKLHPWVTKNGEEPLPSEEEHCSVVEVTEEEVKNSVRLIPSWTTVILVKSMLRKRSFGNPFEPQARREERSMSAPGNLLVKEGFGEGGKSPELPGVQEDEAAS
Experiment: CAMKK1(CAK1LGT5) Takeda global kinase panel

MOLECULE: CN1C(=O)[C@@H](N2CCc3cn(CC4CCS(=O)(=O)CC4)nc3C2=O)COc2ccccc21 [TP-030n]
TARGET DESC: Calcium/calmodulin-dependent protein kinase kinase 1 (Homo sapiens, UniProt Q8N5S9)
IC50: 1000 nM

====

pIC50: −log10 of the molar value.
Entries below carry reported pIC50 on Ribosomal protein S6 kinase beta-1 (Homo sapiens).
Sequence (P23443 whole entry): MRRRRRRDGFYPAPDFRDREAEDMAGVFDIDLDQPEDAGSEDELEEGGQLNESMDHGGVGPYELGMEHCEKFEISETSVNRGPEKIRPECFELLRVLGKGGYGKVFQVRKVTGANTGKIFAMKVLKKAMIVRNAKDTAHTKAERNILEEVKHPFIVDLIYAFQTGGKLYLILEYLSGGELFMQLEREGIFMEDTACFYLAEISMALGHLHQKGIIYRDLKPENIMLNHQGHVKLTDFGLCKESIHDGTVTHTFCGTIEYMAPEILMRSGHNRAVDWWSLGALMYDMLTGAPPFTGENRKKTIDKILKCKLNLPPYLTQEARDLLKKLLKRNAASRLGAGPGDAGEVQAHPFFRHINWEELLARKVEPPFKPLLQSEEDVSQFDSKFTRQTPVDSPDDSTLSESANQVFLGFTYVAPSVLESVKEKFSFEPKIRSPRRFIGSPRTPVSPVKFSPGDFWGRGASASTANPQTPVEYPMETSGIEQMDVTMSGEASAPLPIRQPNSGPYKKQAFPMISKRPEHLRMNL

COMPOUND: CN1C(=O)[C@@H](N2CCc3cn(CC4CCS(=O)(=O)CC4)nc3C2=O)COc2ccccc21 [TP-030n]
TARGET DESC: Ribosomal protein S6 kinase beta-1 (Homo sapiens)
pIC50: 6.00
//
COMPOUND: CN1C(=O)[C@@H](N2CCc3cn(Cc4ccccc4)nc3C2=O)COc2ccccc21
TARGET DESC: Ribosomal protein S6 kinase beta-1 (Homo sapiens)
pIC50: 6.00

====

// reported IC50 for each item listed
Sequence of the target: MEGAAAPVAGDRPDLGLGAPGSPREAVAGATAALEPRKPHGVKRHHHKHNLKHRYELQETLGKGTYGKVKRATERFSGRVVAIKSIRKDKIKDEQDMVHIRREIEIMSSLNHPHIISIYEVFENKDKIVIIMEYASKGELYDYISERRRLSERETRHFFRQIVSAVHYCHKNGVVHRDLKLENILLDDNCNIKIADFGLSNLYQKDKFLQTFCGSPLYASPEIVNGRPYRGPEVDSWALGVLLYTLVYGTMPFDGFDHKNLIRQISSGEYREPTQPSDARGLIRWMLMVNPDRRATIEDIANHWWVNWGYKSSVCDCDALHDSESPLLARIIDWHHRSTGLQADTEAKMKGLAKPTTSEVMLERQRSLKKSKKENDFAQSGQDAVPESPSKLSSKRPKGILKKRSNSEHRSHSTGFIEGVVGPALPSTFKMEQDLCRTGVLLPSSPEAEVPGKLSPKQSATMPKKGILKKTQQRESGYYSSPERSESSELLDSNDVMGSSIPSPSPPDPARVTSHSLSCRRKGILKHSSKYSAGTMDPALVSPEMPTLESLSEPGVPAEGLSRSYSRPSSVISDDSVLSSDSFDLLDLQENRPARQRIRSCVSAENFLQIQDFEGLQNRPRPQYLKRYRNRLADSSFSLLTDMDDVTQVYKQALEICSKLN

MOLECULE: CN1C(=O)[C@@H](N2CCc3cn(CC4CCS(=O)(=O)CC4)nc3C2=O)COc2ccccc21 [TP-030n]
IC50, nM: 1000
--
MOLECULE: CN1C(=O)[C@@H](N2CCc3cn(Cc4ccccc4)nc3C2=O)COc2ccccc21
IC50, nM: 1000

====

Molecular target: Activin receptor type-1-like (Homo sapiens, UniProt P37023)
Sequence (P37023 whole entry): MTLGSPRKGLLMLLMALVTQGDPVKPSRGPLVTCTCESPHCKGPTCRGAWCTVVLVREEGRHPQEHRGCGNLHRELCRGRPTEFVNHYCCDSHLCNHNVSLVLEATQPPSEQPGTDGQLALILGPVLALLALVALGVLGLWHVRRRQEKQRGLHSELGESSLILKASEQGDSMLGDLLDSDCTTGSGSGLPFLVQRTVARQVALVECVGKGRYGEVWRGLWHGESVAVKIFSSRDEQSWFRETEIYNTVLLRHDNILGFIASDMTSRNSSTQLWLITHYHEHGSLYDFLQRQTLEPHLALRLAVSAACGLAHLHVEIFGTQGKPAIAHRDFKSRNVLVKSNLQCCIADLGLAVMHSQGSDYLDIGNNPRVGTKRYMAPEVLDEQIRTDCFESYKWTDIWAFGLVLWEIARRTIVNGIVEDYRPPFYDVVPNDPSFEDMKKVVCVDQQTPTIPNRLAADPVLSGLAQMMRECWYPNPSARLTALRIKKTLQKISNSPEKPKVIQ
Listing of entries alongside the reported IC50.

COMPOUND: CN1C(=O)[C@@H](N2CCc3cn(CC4CCS(=O)(=O)CC4)nc3C2=O)COc2ccccc21 [TP-030n]
IC50 [µM]: 1
--
COMPOUND: CN1C(=O)[C@@H](N2CCc3cn(Cc4ccccc4)nc3C2=O)COc2ccccc21
IC50 [µM]: 1

====

Please consider the recorded IC50 for Tyrosine-protein kinase Blk (Homo sapiens) in what follows.

COMPOUND: CN1C(=O)[C@@H](N2CCc3cn(CC4CCS(=O)(=O)CC4)nc3C2=O)COc2ccccc21 [TP-030n]
TARGET DESC: Tyrosine-protein kinase Blk (Homo sapiens)
Sequence (P51451 whole entry): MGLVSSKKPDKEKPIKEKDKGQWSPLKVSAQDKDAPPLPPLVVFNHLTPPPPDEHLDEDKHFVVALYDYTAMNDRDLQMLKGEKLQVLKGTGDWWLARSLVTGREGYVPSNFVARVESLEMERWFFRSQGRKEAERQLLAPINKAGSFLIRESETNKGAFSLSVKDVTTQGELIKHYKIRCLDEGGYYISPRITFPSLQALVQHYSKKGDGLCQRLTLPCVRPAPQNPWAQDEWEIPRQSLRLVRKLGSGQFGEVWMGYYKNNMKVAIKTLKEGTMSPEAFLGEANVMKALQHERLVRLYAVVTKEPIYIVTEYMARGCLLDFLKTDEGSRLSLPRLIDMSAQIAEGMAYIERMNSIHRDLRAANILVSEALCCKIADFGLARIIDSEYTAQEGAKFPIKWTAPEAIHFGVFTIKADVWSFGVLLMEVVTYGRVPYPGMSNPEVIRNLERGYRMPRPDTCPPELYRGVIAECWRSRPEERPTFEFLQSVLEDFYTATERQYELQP
IC50 / µM: 1
//
COMPOUND: CN1C(=O)[C@@H](N2CCc3cn(Cc4ccccc4)nc3C2=O)COc2ccccc21 [TP-030-1]
TARGET DESC: Tyrosine-protein kinase Blk (Homo sapiens)
IC50 / µM: 1

====

pIC50: −log10 of the molar value.
Below are pIC50 values measured for Citron Rho-interacting kinase (Homo sapiens, UniProt O14578).

COMPOUND: CN1C(=O)[C@@H](N2CCc3cn(CC4CCS(=O)(=O)CC4)nc3C2=O)COc2ccccc21 [TP-030n]
pIC50: 6.00
--
COMPOUND: CN1C(=O)[C@@H](N2CCc3cn(Cc4ccccc4)nc3C2=O)COc2ccccc21
pIC50: 6.00

====

Biological target: Mitogen-activated protein kinase 10 (Homo sapiens)
Sequence (P53779 whole entry): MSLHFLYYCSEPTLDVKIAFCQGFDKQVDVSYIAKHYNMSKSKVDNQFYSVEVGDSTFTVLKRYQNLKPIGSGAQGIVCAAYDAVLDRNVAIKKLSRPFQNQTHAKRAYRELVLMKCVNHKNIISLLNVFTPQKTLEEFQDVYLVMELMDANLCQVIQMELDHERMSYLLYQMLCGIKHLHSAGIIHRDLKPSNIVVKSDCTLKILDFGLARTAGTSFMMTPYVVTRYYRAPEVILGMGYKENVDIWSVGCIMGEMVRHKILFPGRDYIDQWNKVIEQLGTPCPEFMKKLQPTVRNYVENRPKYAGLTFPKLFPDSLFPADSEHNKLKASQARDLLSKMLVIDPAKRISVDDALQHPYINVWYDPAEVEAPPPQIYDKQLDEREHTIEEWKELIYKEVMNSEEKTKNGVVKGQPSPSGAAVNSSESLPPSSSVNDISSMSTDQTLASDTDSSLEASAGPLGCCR
Test: JNK3(MP10LGF2) Takeda global kinase panel
pIC50: −log10 of the molar value.
Reported pIC50 is given for each of the following molecules.

MOLECULE: CN1C(=O)[C@@H](N2CCc3cn(Cc4ccccc4)nc3C2=O)COc2ccccc21 [TP-030-1]
pIC50: 6.00

MOLECULE: CN1C(=O)[C@@H](N2CCc3cn(CC4CCS(=O)(=O)CC4)nc3C2=O)COc2ccccc21 [TP-030n]
pIC50: 6.00

====

Form: system (NT-3 growth factor receptor (Homo sapiens, UniProt Q16288)), quantity (IC50), values below.

COMPOUND: CN1C(=O)[C@@H](N2CCc3cn(Cc4ccccc4)nc3C2=O)COc2ccccc21
UNIT SYMBOL: nM
IC50: 1000
//
COMPOUND: CN1C(=O)[C@@H](N2CCc3cn(CC4CCS(=O)(=O)CC4)nc3C2=O)COc2ccccc21 [TP-030n]
UNIT SYMBOL: nM
IC50: 1000

====

Target: Testis-specific serine/threonine-protein kinase 3 (Homo sapiens)
Sequence (Q96PN8 whole entry): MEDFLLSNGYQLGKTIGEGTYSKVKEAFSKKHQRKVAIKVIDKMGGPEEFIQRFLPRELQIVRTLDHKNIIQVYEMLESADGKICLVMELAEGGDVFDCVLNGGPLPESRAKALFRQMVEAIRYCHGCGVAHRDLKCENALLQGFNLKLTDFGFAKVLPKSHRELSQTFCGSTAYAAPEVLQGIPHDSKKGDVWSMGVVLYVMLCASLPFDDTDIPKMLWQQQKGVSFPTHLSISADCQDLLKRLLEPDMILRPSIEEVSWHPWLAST
pIC50: −log10 of the molar value.

MOLECULE: CN1C(=O)[C@@H](N2CCc3cn(CC4CCS(=O)(=O)CC4)nc3C2=O)COc2ccccc21 [TP-030n]
pIC50: 6.00

====

Target or system UniProt Q13464; recorded quantity pIC50.
Sequence (Q13464 whole entry): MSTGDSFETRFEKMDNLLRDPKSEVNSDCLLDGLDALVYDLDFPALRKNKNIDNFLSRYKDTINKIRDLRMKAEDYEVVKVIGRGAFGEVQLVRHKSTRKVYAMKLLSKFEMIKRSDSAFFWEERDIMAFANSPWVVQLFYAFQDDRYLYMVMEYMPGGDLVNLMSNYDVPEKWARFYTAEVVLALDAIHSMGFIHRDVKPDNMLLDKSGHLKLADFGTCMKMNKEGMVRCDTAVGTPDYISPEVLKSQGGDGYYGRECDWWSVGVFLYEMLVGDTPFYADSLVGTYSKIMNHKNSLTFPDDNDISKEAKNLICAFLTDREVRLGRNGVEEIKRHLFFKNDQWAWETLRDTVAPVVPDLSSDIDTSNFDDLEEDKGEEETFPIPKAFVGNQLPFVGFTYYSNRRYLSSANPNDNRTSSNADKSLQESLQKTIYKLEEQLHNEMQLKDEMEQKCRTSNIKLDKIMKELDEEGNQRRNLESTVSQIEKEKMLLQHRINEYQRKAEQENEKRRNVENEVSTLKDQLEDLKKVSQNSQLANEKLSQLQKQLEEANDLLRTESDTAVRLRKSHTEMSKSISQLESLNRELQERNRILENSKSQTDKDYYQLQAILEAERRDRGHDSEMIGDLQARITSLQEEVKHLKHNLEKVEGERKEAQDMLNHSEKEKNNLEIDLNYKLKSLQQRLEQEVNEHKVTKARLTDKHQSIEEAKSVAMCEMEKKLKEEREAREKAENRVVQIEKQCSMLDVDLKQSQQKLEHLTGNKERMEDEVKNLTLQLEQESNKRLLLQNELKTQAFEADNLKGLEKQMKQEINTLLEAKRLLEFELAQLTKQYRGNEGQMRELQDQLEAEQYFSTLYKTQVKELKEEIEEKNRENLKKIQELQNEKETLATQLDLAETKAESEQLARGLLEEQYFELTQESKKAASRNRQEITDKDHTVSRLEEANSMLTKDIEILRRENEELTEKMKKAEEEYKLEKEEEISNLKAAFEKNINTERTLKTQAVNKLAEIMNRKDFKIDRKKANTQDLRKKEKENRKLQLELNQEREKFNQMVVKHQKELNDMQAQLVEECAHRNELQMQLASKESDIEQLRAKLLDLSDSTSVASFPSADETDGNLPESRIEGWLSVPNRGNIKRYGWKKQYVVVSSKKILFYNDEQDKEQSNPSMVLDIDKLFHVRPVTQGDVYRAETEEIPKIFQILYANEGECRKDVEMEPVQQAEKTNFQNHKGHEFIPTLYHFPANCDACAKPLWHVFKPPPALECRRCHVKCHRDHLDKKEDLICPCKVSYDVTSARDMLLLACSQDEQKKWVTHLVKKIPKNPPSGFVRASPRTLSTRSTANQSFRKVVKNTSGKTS
pIC50: −log10 of the molar value.

COMPOUND: CN1C(=O)[C@@H](N2CCc3cn(Cc4ccccc4)nc3C2=O)COc2ccccc21
pIC50: 6.00

COMPOUND: CN1C(=O)[C@@H](N2CCc3cn(CC4CCS(=O)(=O)CC4)nc3C2=O)COc2ccccc21 [TP-030n]
pIC50: 6.00

====

Listed compounds paired with reported pIC50
Target: Cell division cycle 7-related protein kinase (Homo sapiens, UniProt O00311)
Assay: CDC7(CDC7CGP1) Takeda global kinase panel
pIC50: −log10 of the molar value.
PROPERTY NAME: pIC50

COMPOUND: CN1C(=O)[C@@H](N2CCc3cn(Cc4ccccc4)nc3C2=O)COc2ccccc21 [TP-030-1]
PROPERTY NAME: pIC50
READOUT NUMBER: 6.00
//
COMPOUND: CN1C(=O)[C@@H](N2CCc3cn(CC4CCS(=O)(=O)CC4)nc3C2=O)COc2ccccc21 [TP-030n]
PROPERTY NAME: pIC50
READOUT NUMBER: 6.00
